Tested on: Psdm. aerug. Walter
Experiment: MIC, liquid medium test tube series dilution test
Format: cell-based, Pseudomonas aerug.
Details: 24 hours, 37°C
Quick list: MIC per entry.

These recorded examples may help you get a feel for the data.
Cc1ccc(C(NC(=O)N2CCNC2=O)C(=O)N[C@@H]2C(=O)N3[C@@H]2SC(C)(C)[C@@H]3C(=O)O)cc1 (stereo partly shown) [Example 45]: 12,5 units/ml
CN(C(=O)N[C@@H](C(=O)N[C@@H]1C(=O)N2[C@@H]1SC(C)(C)[C@@H]2C(=O)O)c1ccccc1)C(=O)c1ccccc1Cl [Example 107]: 0.8-4 units/ml
CCCCCCCCCCCCCCCCN(C(C)=O)C(=O)N[C@@H](C(=O)N[C@@H]1C(=O)N2[C@@H]1SC(C)(C)[C@@H]2C(=O)O)c1ccccc1 [Example 74]: > 400 units/ml

Moving on to another compound below.
# input compound: C=CCOC(=O)N(C)C(=O)N[C@@H](C(=O)N[C@@H]1C(=O)N2[C@@H]1SC(C)(C)[C@@H]2C(=O)O)c1ccccc1 [Example 30] ; wanted: its MIC
100-500 units/ml

---

Test system: Klebsiella 63
Assay: MIC, liquid medium test tube series dilution test
Type: cell-based
Settings: Klebsiella 63, 24 hours, 37°C
Quick list: MIC per entry.

These recorded examples may help you get a feel for the data.
CN(C(=O)N[C@@H](C(=O)N[C@@H]1C(=O)N2[C@@H]1SC(C)(C)[C@@H]2C(=O)O)c1ccccc1)C(=O)c1ccccc1Cl: 4-20 units/ml
CN(C(=O)CCCl)C(=O)NC(C(=O)N[C@@H]1C(=O)N2[C@@H]1SC(C)(C)[C@@H]2C(=O)O)C1CC=CCC1 (stereo partly drawn): > 500 units/ml

Moving on to another compound below.
# input compound: C=CCN(C(=O)NC(C(=O)N[C@@H]1C(=O)N2[C@@H]1SC(C)(C)[C@@H]2C(=O)O)c1ccc(OC)cc1)C(=O)c1ccccc1 (stereo partly drawn) ; wanted: its MIC
20-100 units/ml
